# Test target: T1, FcRn-p3 fusion protein (human, UniProt P55899 24-297; P61769 21-119)
# T1 construct: baculovirus expressed; coated on ELISA wells; not shown: amino terminal part of bacteriophage p3 protein and CVDE protein
# T1 sequence (P55899 24-297, chain 1 of 2): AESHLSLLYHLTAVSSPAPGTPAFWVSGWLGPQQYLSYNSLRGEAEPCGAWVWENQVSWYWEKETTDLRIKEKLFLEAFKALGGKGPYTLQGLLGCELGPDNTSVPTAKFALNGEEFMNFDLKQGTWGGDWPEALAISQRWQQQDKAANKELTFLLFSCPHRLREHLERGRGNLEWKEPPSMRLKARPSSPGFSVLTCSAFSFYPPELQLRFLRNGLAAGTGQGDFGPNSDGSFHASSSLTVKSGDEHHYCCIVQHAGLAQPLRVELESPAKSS
# T1 sequence (P61769 21-119, chain 2 of 2): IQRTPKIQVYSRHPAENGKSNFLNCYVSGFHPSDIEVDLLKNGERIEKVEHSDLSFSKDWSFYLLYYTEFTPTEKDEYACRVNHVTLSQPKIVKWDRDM
# Test description: phage ELISA pH6
Each entry below carries its recorded Ratio/Fc-H.
Please respond with the number in fold and leave the unit unwritten.

- Binder: "T5A_55 (other, EU numbering) CPPCLAPELLGGPSVLLLPPKPKDTLMISRTPEVTCVVEDVSHEDPEVKFNWYVDGVEVHNAKTKPREEQYNSTYRVVSVLPVLHQDWLNGKEYKCKVSNKALPAPIEKTISKAKGQPREPQVYTLPPSRDELTKNQVSLTCLVKGFYPSDIVVEWESNGQPENNYKTTPPVLDSDGSFFLYSKLTVDKSRWQQGNVFSCSVMHEALHNHYTQKSLSLSPGK"
  Ratio/Fc-H [fold]: 5.6
- Binder: "T6A_85 (other, EU numbering) CPPCPAPELLGGPSVFLFPPKPKDALMISRTPEVTCVVVDVSHEDPEVKFNWYVDGVEVHNAKTKPREEQYNSTYRVVSVLTVLHQDWLDGKEYKCKVSSKALPVPIEKTISKAKGQPREPQVYTLPPSRDELTKNQVSLTCLVKGFYPSDIAVEWESNGQPENNYKTTPPVLDSDGSFFLYSKLTVDKSRWQQGNVFSCSVMHEALHYHYTQKSLSLSPGK"
  Ratio/Fc-H [fold]: 5.1

Q) Report measured Ratio/Fc-H; entry is C6A_60C (other, EU numbering) CPLCSAPELLGGPSVFLFPPKPKDTLMISRTPEVTCVVVDVSHEDPEVKFNWYVDGVEVHNAKTKPREEQYNSTYRVVSVLTVLHQDWLDGKEYKCKVSNKALPAPIEKTISKAKGQPREPQVYTLPPSRDELTKNQVSLTCLVKGFYPSDIAVEWESNGQPENNYKTTPPVLDSDGSFFLYSKLTVDKSRWQQGNVFSCSVLHEALHYHYTQKSLSLSPGK
A) 5.3
